Catalogue of EC50 readings, one per entry.
target-under-test: UniProtKB Q9GZU1
Sequence (Q9GZU1 whole entry L15A/L16A/L577A/L578A, form open): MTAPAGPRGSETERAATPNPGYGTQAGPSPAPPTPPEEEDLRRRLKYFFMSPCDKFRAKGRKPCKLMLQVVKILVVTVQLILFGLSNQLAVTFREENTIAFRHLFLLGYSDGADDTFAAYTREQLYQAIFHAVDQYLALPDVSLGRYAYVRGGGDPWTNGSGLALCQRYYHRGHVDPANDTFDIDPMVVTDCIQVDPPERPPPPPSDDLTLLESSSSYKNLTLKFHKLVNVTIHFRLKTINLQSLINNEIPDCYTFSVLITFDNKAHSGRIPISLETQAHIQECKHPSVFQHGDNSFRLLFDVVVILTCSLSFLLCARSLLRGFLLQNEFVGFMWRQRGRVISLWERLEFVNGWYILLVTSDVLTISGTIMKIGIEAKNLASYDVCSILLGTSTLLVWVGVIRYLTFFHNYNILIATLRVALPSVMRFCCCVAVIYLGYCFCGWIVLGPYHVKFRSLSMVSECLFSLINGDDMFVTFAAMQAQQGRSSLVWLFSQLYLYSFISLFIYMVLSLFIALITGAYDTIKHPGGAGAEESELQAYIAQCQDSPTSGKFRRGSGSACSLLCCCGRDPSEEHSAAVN
experiment-description: Fluorescent TRPML1 assay (Fluo4-AM calcium fluorescence in doxycycline-induced HEK-293 Trex cells)
Type: cell-based
measurement-conditions: fluorescent calcium assay
Experimental: HEK-293 Trex cells were stably transfected with a construct consisting of the human coding sequence for TRPML1 cloned into the […] plasmid pCDNA5 T/O. Mutations were introduced into the TRPML1 sequence to facilitate expression on the cell surface (Silvia Vergarajauregui, Rosa Puertollano, Traffic. 2006 March; 7(3): 337-353). […] The Trypsin-EDTA is diluted with growth media, and cells are counted. […] EC50 values were calculated using a non-linear regression of Prism. […]

# annotated cases, reported EC50 shown
compound="C[C@H]1CN(C(=O)OC(C)(C)C)CCN1c1ncnc2c1c(C1CC1)cn2-c1ccc(Cl)cc1 [Compound 114]" reported_measurement="< 100 nM"
compound="C[C@H]1CN(C(=O)OC(C)(C)C)CCN1c1ncnc2c1c(-c1ccccn1)cn2-c1cccc(C#N)c1 [Compound 280]" reported_measurement="100 to 500 nM"
compound="C[C@@H]1CN(c2ncnc3c2c(C2CC2)cn3-c2ccc(F)c(Cl)c2)CCN1C(=O)OC(C)(C)C [Compound 208]" reported_measurement="< 100 nM"
compound="C[C@H]1CN(C(=O)OC(C)(C)C)CCN1c1ncnc2c1c(C1(C)CC1)cn2-c1cccc(C#N)c1 [Compound 402]" reported_measurement="< 100 nM"
compound="CC(C)(C)OC(=O)N1CCN(c2ncnc3c2c(C2CC2)cn3-c2cc(Cl)cc(Cl)c2)CC1 [Compound 122]" reported_measurement="< 100 nM"
compound="C[C@@H]1CN(c2ncnc3c2c(N2CCC2)cn3-c2cccc(C#N)c2)CCN1C(=O)OC(C)(C)C [Compound 341]" reported_measurement="< 100 nM"
compound="C[C@H]1CN(C(=O)OC(C)(C)C)CCN1c1ncnc2c1c(-c1ccncc1F)cn2-c1cc(C#N)ccn1 [Compound 355]" reported_measurement="< 100 nM"
compound="C[C@@H]1CN(c2ncnc3c2c(-c2cccnc2)cn3-c2cncc(C(F)(F)F)c2)[C@@H](C)CN1C(=O)OC(C)(C)C [Compound 179]" reported_measurement="500 to 2000 nM"

Asked: Give the reported EC50 for this compound. C[C@@H]1CN(c2ncnc3c2c(-c2ccccn2)cn3-c2cc(F)cc(Cl)c2)CCN1C(=O)OC(C)(C)C [Compound 221]
Given back: < 100 nM

Asked: Give the reported value of EC50 for this record: C[C@@H]1CN(c2ncnc3c2c(N2CCC2)cn3-c2cc(C#N)ccn2)[C@@H](C)CN1C(=O)OC(C)(C)C [Compound 489]
Given back: < 100 nM
